# MEASURED ON: FXR (Homo sapiens, UniProt Q96RI1)
# Construct: using a full length FXR on a natural response element; expressed in transfected cells
# Sequence (Q96RI1 1-486): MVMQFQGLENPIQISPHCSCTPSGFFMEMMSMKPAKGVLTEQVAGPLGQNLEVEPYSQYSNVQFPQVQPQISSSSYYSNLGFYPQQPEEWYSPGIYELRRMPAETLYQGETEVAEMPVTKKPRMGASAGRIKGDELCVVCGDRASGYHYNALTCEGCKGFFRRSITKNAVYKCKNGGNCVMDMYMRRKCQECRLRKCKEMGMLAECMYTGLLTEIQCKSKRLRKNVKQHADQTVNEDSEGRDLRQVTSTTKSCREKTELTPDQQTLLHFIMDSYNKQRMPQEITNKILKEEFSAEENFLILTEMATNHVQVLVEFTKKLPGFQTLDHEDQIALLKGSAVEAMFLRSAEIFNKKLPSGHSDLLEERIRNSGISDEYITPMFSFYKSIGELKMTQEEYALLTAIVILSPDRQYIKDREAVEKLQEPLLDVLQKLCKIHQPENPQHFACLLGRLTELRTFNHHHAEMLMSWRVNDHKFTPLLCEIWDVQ
# MEASUREMENT DESCRIPTION: cell-based FXR transcription assay, FXR responsive promoter linked to luciferase reporter
# CONDITION SET: cell-based FXR reporter assay; footnote a not given
# Experimental: In addition to ensuring that only cell permeable compounds were selected for further optimization, this approach allows for the detection of FXR activation in a natural system (i.e., correct folding of the protein and in the presence of a complete compliment of co-activators and co-repressors). […] EC50 values were determined with Prism 3.0 software via the activity of the subject compound in the previously described cell based assay.
MEASURE NAME: RE^a

[[record]]
sample_smiles = "COC(=O)/C=C/c1cccc(N(Cc2ccc(-c3cccc(OC(F)(F)F)c3)cc2)C(=O)NC(C)C)c1"
measure_name = "RE^a"
reported_result = 0.09

[[record]]
sample_smiles = "COC(=O)/C=C/c1cccc(N(Cc2ccc(/C=C/c3ccccc3)cc2)C(=O)NC(C)C)c1"
measure_name = "RE^a"
reported_result = 1.38

[[record]]
sample_smiles = "COC(=O)/C=C/c1cccc(N(Cc2cccc(C(F)(F)F)c2)C(=O)C2CCCCC2)c1"
measure_name = "RE^a"
reported_result = 0.12

[[record]]
sample_smiles = "COC(=O)/C=C/c1cccc(N(Cc2ccc(-c3cccc(Cl)c3)cc2)C(=O)C2CCCCC2)c1"
measure_name = "RE^a"
reported_result = 1.56


====

# Test system: IBABP mRNA in HT29-FXRFL cells
# MEASUREMENT DESCRIPTION: Northern blot of IBABP mRNA in HT29 stable cell lines
# Type: cell-based, Human
# CONDITION SET: HT29-FXRFL cells, overnight treatment
MEASURE NAME: concentration for maximal induction of IBABP mRNA

[[record]]
compound = "COC(=O)/C=C/c1cccc(N(Cc2ccc(-c3ccc4c(c3)OCO4)cc2)C(=O)C2CCCCC2)c1"
reported_result = "1 µM"

[[record]]
compound = "C[C@H](CCC(=O)O)[C@H]1CC[C@H]2[C@@H]3[C@H](O)C[C@@H]4C[C@H](O)CC[C@]4(C)[C@H]3CC[C@]12C [CDCA, chenodeoxycholic acid, reference compound]"
reported_result = "100 µM"

[[record]]
compound = "CC(C)c1onc(-c2c(Cl)cccc2Cl)c1COc1ccc(/C=C/c2cccc(C(=O)O)c2)c(Cl)c1 [GW4064, reference compound]"
reported_result = "1 µM"

[[record]]
compound = "COC(=O)C=Cc1cccc(N(Cc2ccc(C=Cc3ccccc3)cc2)C(=O)C2CCCCC2)c1"
reported_result = "1 µM"

[[record]]
compound = "COC(=O)/C=C/c1cccc(N(Cc2ccc(-c3ccc(N(C)C)cc3)cc2)C(=O)C2CCCCC2)c1"
reported_result = "1 µM"


====

# MEASURED ON: FXR (Homo sapiens, UniProt Q96RI1)
# Construct: using a full length FXR on a natural response element; expressed in transfected cells
# MEASUREMENT DESCRIPTION: cell-based FXR transcription assay, FXR responsive promoter linked to luciferase reporter
# CONDITION SET: cell-based reporter assay, SAR discussion
MEASURE NAME: FXR activation, in words

[[record]]
sample_smiles = "COC(=O)/C=C/c1cccc(N(Cc2ccc(-c3ccc4c(c3)OCO4)cc2)C(=O)C(C)C)c1"
reported_result = "excellent activity"

[[record]]
sample_smiles = "COC(=O)/C=C/c1cccc(N(Cc2ccc(-c3ccc(C)cc3)cc2)C(=O)C(C)C)c1"
reported_result = "excellent activity"

[[record]]
sample_smiles = "COC(=O)/C=C/c1cccc(N(Cc2ccc(/C=C/c3c(Cl)cccc3Cl)cc2)C(=O)C2CCCCC2)c1"
reported_result = "excellent activity"

[[record]]
sample_smiles = "COC(=O)/C=C/c1cccc(N(Cc2cccc(/C=C/C(=O)OC(C)(C)C)c2)C(=O)C2CCCCC2)c1"
reported_result = "only micromolar potency"

[[record]]
sample_smiles = "COC(=O)/C=C/c1cccc(N(Cc2ccc(-c3ccc(N(C)C)cc3)cc2)C(=O)C(C)C)c1"
reported_result = "excellent activity"

[[record]]
sample_smiles = "COC(=O)/C=C/c1cccc(N(Cc2ccc(-c3ccc(F)c(F)c3)cc2)C(=O)C2CCCCC2)c1"
reported_result = "excellent activity"

[[record]]
sample_smiles = "COC(=O)/C=C/c1cccc(N(Cc2ccc(/C=C/c3cccc(F)c3)cc2)C(=O)C(C)C)c1"
reported_result = "excellent activity"

[[record]]
sample_smiles = "COC(=O)/C=C/c1cccc(N(Cc2ccccc2/C=C/C(=O)OC(C)(C)C)C(=O)C2CCCCC2)c1"
reported_result = "only micromolar potency"

[[record]]
sample_smiles = "COC(=O)C=Cc1cccc(N(Cc2ccc(C=Cc3cccc(Cl)c3)cc2)C(=O)C2CCCCC2)c1"
reported_result = "excellent activity"

[[record]]
sample_smiles = "COC(=O)/C=C/c1cccc(N(Cc2ccc(/C=C/c3ccc(F)cc3)cc2)C(=O)C(C)C)c1"
reported_result = "excellent activity"

[[record]]
sample_smiles = "COC(=O)/C=C/c1cccc(N(Cc2ccc(-c3cccc(C)c3)cc2)C(=O)C2CCCCC2)c1"
reported_result = "excellent activity"

[[record]]
sample_smiles = "COC(=O)/C=C/c1cccc(N(Cc2ccc(-c3cccc(Cl)c3)cc2)C(=O)C2CCCCC2)c1"
reported_result = "excellent activity"


====

# MEASURED ON: FXR (Homo sapiens)
# Construct: using a full length FXR on a natural response element; expressed in transfected cells
# MEASUREMENT DESCRIPTION: cell-based FXR transcription assay, FXR responsive promoter linked to luciferase reporter
# CONDITION SET: cell-based FXR reporter assay; footnote a not given
MEASURE NAME: RE^a

[[record]]
sample_smiles = "CCOc1cccc(-c2ccc(CN(C(=O)C3CCCCC3)c3cccc(/C=C/C(=O)OC)c3)cc2)c1"
measured_on = "FXR (Homo sapiens)"
reported_result = 1.37

[[record]]
sample_smiles = "COC(=O)/C=C/c1cccc(N(Cc2ccc(/C=C/c3c(Cl)cccc3Cl)cc2)C(=O)NC(C)C)c1"
measured_on = "FXR (Homo sapiens)"
reported_result = 0.15

[[record]]
sample_smiles = "COC(=O)/C=C/c1cccc(N(Cc2ccc(-c3ccc(C)cc3)cc2)C(=O)C2CCCCC2)c1"
measured_on = "FXR (Homo sapiens)"
reported_result = 1.38

[[record]]
sample_smiles = "COC(=O)C=Cc1cccc(N(Cc2ccc(C=Cc3ccc(F)cc3)cc2)C(=O)C2CCCCC2)c1"
measured_on = "FXR (Homo sapiens)"
reported_result = 0.53

[[record]]
sample_smiles = "COC(=O)/C=C/c1cccc(N(Cc2ccc(-c3ccc(C(C)(C)C)cc3)cc2)C(=O)C(C)C)c1"
measured_on = "FXR (Homo sapiens)"
reported_result = 0.59

[[record]]
sample_smiles = "COC(=O)/C=C/c1cccc(N(Cc2ccc(-c3ccc(F)c(Cl)c3)cc2)C(=O)C2CCCCC2)c1"
measured_on = "FXR (Homo sapiens)"
reported_result = 1.87

[[record]]
sample_smiles = "COC(=O)C=Cc1cccc(N(Cc2ccc(C=CC(=O)OCc3ccccc3)cc2)C(=O)C2CCCCC2)c1"
measured_on = "FXR (Homo sapiens)"
reported_result = 0.23

[[record]]
sample_smiles = "COC(=O)/C=C/c1cccc(N(Cc2ccc(/C=C/c3cc(C(F)(F)F)cc(C(F)(F)F)c3)cc2)C(=O)NC(C)C)c1"
measured_on = "FXR (Homo sapiens)"
reported_result = 0.13

[[record]]
sample_smiles = "COC(=O)/C=C/c1cccc(N(Cc2ccc(/C=C/c3ccc(C)cc3)cc2)C(=O)C2CCCCC2)c1"
measured_on = "FXR (Homo sapiens)"
reported_result = 0.83

[[record]]
sample_smiles = "CCOCC=Cc1ccc(CN(C(=O)C2CCCCC2)c2cccc(C=CC(=O)OC)c2)cc1"
measured_on = "FXR (Homo sapiens)"
reported_result = 2.06

[[record]]
sample_smiles = "COC(=O)C=Cc1cccc(N(Cc2ccc(C=Cc3cccc(F)c3)cc2)C(=O)C2CCCCC2)c1"
measured_on = "FXR (Homo sapiens)"
reported_result = 1.36

[[record]]
sample_smiles = "COC(=O)/C=C/c1cccc(N(Cc2ccc(/C=C/c3ccc(C)cc3)cc2)C(=O)C(C)C)c1"
measured_on = "FXR (Homo sapiens)"
reported_result = 0.37

[[record]]
sample_smiles = "CCOC(=O)COc1cc(C=CC(=O)OC(C)(C)C)ccc1CN(C(=O)C1CCCCC1)c1cccc(C=CC(=O)OC)c1"
measured_on = "FXR (Homo sapiens)"
reported_result = 0.18

[[record]]
sample_smiles = "COC(=O)C=Cc1cccc(N(Cc2ccc(C=CC(=O)OC(C)(C)C)cc2)C(=O)NCc2ccccc2)c1"
measured_on = "FXR (Homo sapiens)"
reported_result = 0.27

